# System: OVCAR-8 ovarian
# TEST DESCRIPTION: NCI tumour cell line growth inhibition, 48 h
QUANTITY KIND: TGI (µM)
Field: numeric (µM). Do not append units.

Form field TGI, entry O=C1C=CC2=[N+]([O-])C(c3ccccc3)(c3ccccc3)C(=Nc3ccccc3)C2=C1 : 3.39

Form field TGI, entry CN(C)C/C=C/C(=O)Nc1cc2c(Nc3ccc(F)c(Cl)c3F)ncnc2cc1OCCOC(F)F : 9.9

Form field TGI, entry COc1cc2c(cc1OC)C(OC)N(C)c1c-2ccc2cc3c(cc12)OCO3 (centres undefined) : 21.6

Form field TGI, entry COc1cc(/C=C/c2cc(/C=C/c3ccc(O)c(OC)c3)nc(N)n2)ccc1O : 7.24

Form field TGI, entry CC=CCOc1cc(NC(=S)OC(C)C)ccc1Cl (mixture of isomers) : 33.9

Form field TGI, entry Cc1ccc2c(n1)C(=O)C=CC2=O : 33.7

Form field TGI, entry C[C@@H]1Cc2c([nH]c3ccccc23)[C@@H](c2c(F)cc(NC3CN(CCCF)C3)cc2F)N1CC(F)(F)CO : 33

Form field TGI, entry COc1cc2c3c(n(CCCNCCCNCCCNCCCN)c(=O)c2cc1OC)-c1cc2c(cc1C3=O)OCO2 : 10.8
